Hi there, I'd appreciate the recorded polymerase ribozyme fitness (log ratio) for every entry that follows.
B1: TPR t1 (parent)
chain: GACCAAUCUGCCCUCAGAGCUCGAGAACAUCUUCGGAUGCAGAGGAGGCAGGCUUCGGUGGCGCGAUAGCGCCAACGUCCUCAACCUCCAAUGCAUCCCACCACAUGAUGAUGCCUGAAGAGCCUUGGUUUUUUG

Variants of: B1
assayComment: polymerase ribozyme fitness, log enrichment relative to wild type (log ratio); higher = more active; in vitro selection for triplet polymerase activity
Form field (numeric): enter value without unit.

Find the recorded polymerase ribozyme fitness (log ratio) belonging to C8G A74U and report it. 0.0385

Record request: polymerase ribozyme fitness (log ratio) value, item G19C C20U C31G C89U U109C C123U -7.81

# lookup: polymerase ribozyme fitness (log ratio) of U38A G44U G52U C72G -4.73

Fill in: polymerase ribozyme fitness (log ratio) of U21A G60A U96C U116G is ___ -1.53

Recorded polymerase ribozyme fitness (log ratio) of C53U C62U A111U A118U , please. -3.63
